test system: Wild type; test: S. aureus survival, RN4220 and DeltatarO strains – OD600, teichoic acid synthesis inhibitors, primary screen (AID 463173); details: S. aureus RN4220 wild type/DeltatarO growth, OD600, 18 h, active compounds read low, screened at 18.75 µg/mL (by protocol)
Among all 52,000 compounds or so, about 1,700 (3.3%) were called active. The sample as a whole holds a higher share of actives than the screen did.
Labelling: survival reported below 60% becomes 1 (yes); at or above becomes 0 (no).

1. CC1=C(C(=O)Nc2cccc(C(F)(F)F)c2)C2(CCCCC2)OC1=O    0 (no)
2. Cc1ccc(C)c(CN2CCCN(Cc3ccc(F)cc3)S2(=O)=O)c1    1 (yes)
3. COC(=O)c1ccc(NC(=O)CN2CCCN(Cc3ccc(Cl)cc3)S2(=O)=O)cc1    0 (no)
4. Cc1ccc(C)c(CN2CCCN(Cc3ccccc3C)S2(=O)=O)c1    0 (no)
5. COC(=O)c1ccc(-n2nnc(-c3nsc(NC(=O)c4ccc(Cl)cc4)n3)c2C)cc1    0 (no)
6. CC1=C(C(=O)Nc2cccc(Cl)c2C)C2(CCCCCC2)OC1=O    1 (yes)
7. CC1=C(C(=O)Nc2ccccc2Br)C2(CCC(C)CC2)OC1=O (stereo unspecified)    0 (no)
8. Cn1c(=O)c(=O)n(C)c2cc(NC(=O)c3cccc(F)c3)c(Cl)cc21    0 (no)
9. COc1ccc(NS(=O)(=O)c2ccc3[nH]c4c(c3c2)CCCC4)c(OC)c1    0 (no)
10. Cc1nnc(N(Cc2ccco2)C(=O)c2cccc(C#N)c2)s1    0 (no)
11. O=C(c1ccccc1)C(C(=O)N1CCCCC1)n1ccccc1=O (stereo unspecified)    0 (no)
12. Cn1c(=O)c(=O)n(C)c2cc(NS(=O)(=O)c3ccc(Br)cc3)c(Cl)cc21    0 (no)
13. COc1ccc(OC)c(NC(=O)C2=C(C)C(=O)OC23CCCCCC3)c1    0 (no)
14. Cc1c(CC(=O)NCCc2ccccc2)c(=O)oc2c(C)c3occ(C(C)(C)C)c3cc12    0 (no)
15. COc1ccc(OC)c(NC(=O)C2=C(C)C(=O)OC23CCN(C(C)C)CC3)c1    1 (yes)
16. COC(=O)c1ccccc1NC(=O)C1=C(C)C(=O)OC12CCC(C)CC2 (stereo unspecified)    1 (yes)
17. CCc1nc2ccccc2n1CCCCOc1cccc(C)c1    1 (yes)
18. COC(=O)c1ccc(OC)c(CN2CCCN(Cc3ccc(C)cc3)S2(=O)=O)c1    1 (yes)
19. CC1=C(C(=O)Nc2cccc(C(F)(F)F)c2)C2(CCCCCC2)OC1=O    1 (yes)
20. Cc1cccc(Cn2c(CNS(=O)(=O)c3ccc(C(C)C)cc3)nc3cccnc32)c1    0 (no)
21. COC(=O)c1cc(S(=O)(=O)N2CCN(c3ccc(C)cc3C)CC2)cn1C    0 (no)
